Recorded folding stability dG unfold by entry
# test: folding stability dG unfold from trypsin proteolysis; higher = more stable
Quick reminder: number only, in kcal/mol, skip the unit.

Please review the following examples before continuing.
residues	observed.value
SMSRPVEVEFELPLEGEGPVRLRATLVVDPESGVVEIPVRARFPEREEDVDLPPELLERLARRVLEELGGSA [r9_1136_TrMRF]	0.744
SAGGMVEIDPNPRVITVTDPSSSKVTKLNLPFPPDEVEKVTVLPDGTIAVYVPATGETIEVPLSELGSAGGS [r16_410_JUSTAS]	-0.136
SAGGSAGGSAGGGVAFSSDTTETRIDTTDDDTIVITTTTYAPNPSSTTTTVTTVPPDVPLSAGGSAGGSAGG [r7_128_JUSTAS]	1.24

We next turn to a different sequence, shown below.
Would you mind telling me what folding stability dG unfold value was observed for SAGGPPIRIKVELWDPNGKEYTHTFPFGEPLDQILDNASKQFGLPLRVEDIEYDPDGMITITIRIPDSAGGS [r8_285_TrROS] ?
1.75
